FYI, the data here is from ChEMBL document CHEMBL6153135.

Experiment: Metabolic stability in human liver microsomes assessed as clearance measured for 5 to 60 mins by LC-MS/MS analysis
Assay type: ADME, Microsome
Settings: time 5-60 min, read-out: CLH
measurement.label: microsomal CLint
Provide the measurement as a number trailed by its unit.

Measured microsomal CLint of CC(=O)N1CCC(NC(=O)c2ccc3cc2OCCCCCCOc2cc(ccc2F)-c2nc(ncc2F)N3)CC1 : 10.8 µL/min/mg

====

Assay: AUC (0 to infinity) in Sprague-Dawley rat at 20 mg/kg, po
Format: ADME, organism-based
Conditions: in vivo
measurement.label: AUC(0-inf) (ng·h/mL)
Just the number please, in ng·h/mL, no unit attached.

Measured AUC(0-inf) of CC(=O)N1CCC(NC(=O)c2ccc3cc2OCCCCCCOc2cc(ccc2F)-c2nc(ncc2F)N3)CC1 : 5960

====

Test: Metabolic stability in monkey liver microsomes assessed as half life measured for 5 to 60 mins by LC-MS/MS analysis
Format: ADME, Macaca mulatta, Microsome
Conditions: rhesus monkey, time 5-60 min
measurement.label: half-life (min)
Just the number please, in min, no unit attached.

Measured half-life of CC(=O)N1CCC(NC(=O)c2ccc3cc2OCCCCCCOc2cc(ccc2F)-c2nc(ncc2F)N3)CC1 : 59.1

====

System: NCI-H1975
Test: Anti-proliferative activity against human NCI-H1975 cells assessed as cell inhibition measured after 72 hrs in presence of 100 nM JQ1 by MTT assay
Assay type: functional, cell-based
Settings: NCI-H1975, 72 h
measurement.label: IC50 (nM)
Just the number please, in nM, no unit attached.

Measured IC50 of CC(=O)N1CCC(NC(=O)c2ccc3cc2OCCCCCCOc2cc(ccc2F)-c2nc(ncc2F)N3)CC1 : 133

====

Target: CDK2/Cyclin A2 (Homo sapiens)
Experiment: Inhibition of CDK2/Cyclin A2 (unknown origin) preincubated for 10 mins followed by substrate/ATP measured after 60 mins by ADP-Glo assay
IC50 values by entry
Just the number please, in nM, no unit attached.

Please review the entries below; each comes with its answer.
- compound: "CCN1CCC(NC(=O)c2ccc3cc2OCCCCCCOc2cc(ccc2F)-c2nc(ncc2F)N3)CC1"
  unit.of.measurement: "nM"
  endpoint.value: 68.8
- compound: "O=C(NC1CCN(C2CC2)CC1)c1ccc2cc1OCCCCCCOc1cc(ccc1F)-c1nc(ncc1F)N2"
  unit.of.measurement: "nM"
  endpoint.value: 370
- compound: "O=C(NC1CCN(C2CCOC2)CC1)c1ccc2cc1OCCCCCCOc1cc(ccc1F)-c1ncnc(n1)N2 (stereo unspecified)"
  unit.of.measurement: "nM"
  endpoint.value: 286

Measured IC50 of CC(=O)N1CCC(NC(=O)c2ccc3cc2OCCCCCCOc2cc(ccc2F)-c2nc(ncc2F)N3)CC1 : 126

Measured IC50 of O=C(NC1CCN(C2CCOC2)CC1)c1ccc2cc1OCCCCCCOc1cc(ccc1F)-c1nc(ncc1F)N2 (stereo unspecified) : 150

Measured IC50 of O=C(NC1CCN(C2CC2)CC1)c1ccc2cc1OCCCCCCOc1cncc(c1)-c1nc(ncc1F)N2 : 28.3

Measured IC50 of CN1CCC(CNC(=O)c2ccc3cc2OCCCCCCOc2cc(ccc2F)-c2nc(ncc2F)N3)CC1 : 38.9

Measured IC50 of O=C(NC1CCN(C2CC2)CC1)c1ccc2cc1OCCCCCCn1cc(cn1)-c1nc(ncc1F)N2 : 11.4

Measured IC50 of O=C(NC1CCN(C2CCOC2)CC1)c1ccc2cc1OCCCCCCn1cc(cn1)-c1nc(ncc1F)N2 (stereo unspecified) : 14.2

Measured IC50 of CC(=O)N1CCC(NC(=O)c2ccc3cc2OCCCCCCOc2cncc(c2)-c2nc(ncc2F)N3)CC1 : 20.6

Measured IC50 of O=C(NC1CCN(C2CCOC2)CC1)c1ccc2cc1OCCCCCCOc1cncc(c1)-c1nc(ncc1F)N2 (stereo unspecified) : 18.1

Measured IC50 of CC(C)N1CCC(NC(=O)c2ccc3cc2OCCCCCCOc2cc(ccc2F)-c2nc(ncc2F)N3)CC1 : 67

Measured IC50 of O=C(NCCN1CCOCC1)c1ccc2cc1OCCCCCCOc1cncc(c1)-c1nc(ncc1F)N2 : 22.2

Measured IC50 of O=C(CN1CCOCC1)NCc1ccc2cc1OCCCCCCOc1cc(ccc1F)-c1nc(ncc1F)N2 : 200

Measured IC50 of O=C(NCCN1CCCC1)c1ccc2cc1OCCCCCCOc1cc(ccc1F)-c1nc(ncc1F)N2 : 18.3

====

Experiment: Half life in Sprague-Dawley rat at 20 mg/kg, po
Format: ADME, organism-based
Conditions: in vivo
measurement.label: half-life (h)
Just the number please, in h, no unit attached.

Measured half-life of CC(=O)N1CCC(NC(=O)c2ccc3cc2OCCCCCCOc2cc(ccc2F)-c2nc(ncc2F)N3)CC1 : 6.7

====

Assay: Metabolic stability in rat liver microsomes assessed as half life measured for 5 to 60 mins by LC-MS/MS analysis
Type: ADME, Microsome
Details: time 5-60 min
log10(half-life) values by entry
Friendly reminder: values = log10 of half-life, unit min.

- compound: "CN1CCC(CNC(=O)c2ccc3cc2OCCCCCCOc2cc(ccc2F)-c2nc(ncc2F)N3)CC1"
  log10(half-life): 1.09
- compound: "O=C(NCCN1CCCC1)c1ccc2cc1OCCCCCCOc1cc(ccc1F)-c1nc(ncc1F)N2"
  log10(half-life): 1.56
- compound: "CCN1CCC(NC(=O)c2ccc3cc2OCCCCCCOc2cc(ccc2F)-c2nc(ncc2F)N3)CC1"
  log10(half-life): 0.73
- compound: "COC[C@@H](C)NC(=O)c1ccc2cc1OCCCCCCOc1cc(ccc1F)-c1nc(ncc1F)N2"
  log10(half-life): 2.09
- compound: "O=C(NCCN1CCOCC1)c1ccc2cc1OCCCCCCOc1cc(ccc1F)-c1nc(ncc1F)N2"
  log10(half-life): 0.83

Measured log10(half-life) of CN1CCC(NC(=O)c2ccc3cc2OCCCCCCOc2cc(ccc2F)-c2nc(ncc2F)N3)CC1 : 1.63

Measured log10(half-life) of O=C(NC1CCN(C2CC2)CC1)c1ccc2cc1OCCCCCCOc1cc(ccc1F)-c1nc(ncc1F)N2 : 1.81

Measured log10(half-life) of CC(C)N1CCC(NC(=O)c2ccc3cc2OCCCCCCOc2cc(ccc2F)-c2nc(ncc2F)N3)CC1 : 0.93

Measured log10(half-life) of O=C(NC1CCN(C2CCOC2)CC1)c1ccc2cc1OCCCCCCOc1cc(ccc1F)-c1nc(ncc1F)N2 (stereo not given) : 1.40

Measured log10(half-life) of CN1CCN(CCNC(=O)c2ccc3cc2OCCCCCCOc2cc(ccc2F)-c2nc(ncc2F)N3)CC1 : 0.98

====

Test: Apparent volume of distribution in Sprague-Dawley rat at 2 mg/kg, iv
Format: ADME, organism-based
Settings: in vivo, read-out: Vz
measurement.label: Vd (L/kg)
Just the number please, in L/kg, no unit attached.

Measured Vd of CC(=O)N1CCC(NC(=O)c2ccc3cc2OCCCCCCOc2cc(ccc2F)-c2nc(ncc2F)N3)CC1 : 1.9

====

Test: Clearance in Sprague-Dawley rat at 20 mg/kg, po
Assay type: ADME, organism-based
Conditions: in vivo
measurement.label: CL/F (mL/min/kg)
Just the number please, in mL/min/kg, no unit attached.

Measured CL/F of CC(=O)N1CCC(NC(=O)c2ccc3cc2OCCCCCCOc2cc(ccc2F)-c2nc(ncc2F)N3)CC1 : 63.3

====

Assay: Apparent volume of distribution in BALB/c mouse at 2 mg/kg, iv
Type: ADME, organism-based
Conditions: in vivo, read-out: Vz
measurement.label: Vd (L/kg)
Just the number please, in L/kg, no unit attached.

Measured Vd of CC(=O)N1CCC(NC(=O)c2ccc3cc2OCCCCCCOc2cc(ccc2F)-c2nc(ncc2F)N3)CC1 : 30.7

====

Assay: Oral bioavailability in Sprague-Dawley rat at 20 mg/kg
Assay type: ADME, organism-based
Details: in vivo
measurement.label: bioavailability
Provide the measurement as a number trailed by its unit.

Measured bioavailability of CC(=O)N1CCC(NC(=O)c2ccc3cc2OCCCCCCOc2cc(ccc2F)-c2nc(ncc2F)N3)CC1 : 14.3%

====

Target: CDK9/cyclin T1 (Homo sapiens, UniProt P50750)
Sequence (O60563 whole entry): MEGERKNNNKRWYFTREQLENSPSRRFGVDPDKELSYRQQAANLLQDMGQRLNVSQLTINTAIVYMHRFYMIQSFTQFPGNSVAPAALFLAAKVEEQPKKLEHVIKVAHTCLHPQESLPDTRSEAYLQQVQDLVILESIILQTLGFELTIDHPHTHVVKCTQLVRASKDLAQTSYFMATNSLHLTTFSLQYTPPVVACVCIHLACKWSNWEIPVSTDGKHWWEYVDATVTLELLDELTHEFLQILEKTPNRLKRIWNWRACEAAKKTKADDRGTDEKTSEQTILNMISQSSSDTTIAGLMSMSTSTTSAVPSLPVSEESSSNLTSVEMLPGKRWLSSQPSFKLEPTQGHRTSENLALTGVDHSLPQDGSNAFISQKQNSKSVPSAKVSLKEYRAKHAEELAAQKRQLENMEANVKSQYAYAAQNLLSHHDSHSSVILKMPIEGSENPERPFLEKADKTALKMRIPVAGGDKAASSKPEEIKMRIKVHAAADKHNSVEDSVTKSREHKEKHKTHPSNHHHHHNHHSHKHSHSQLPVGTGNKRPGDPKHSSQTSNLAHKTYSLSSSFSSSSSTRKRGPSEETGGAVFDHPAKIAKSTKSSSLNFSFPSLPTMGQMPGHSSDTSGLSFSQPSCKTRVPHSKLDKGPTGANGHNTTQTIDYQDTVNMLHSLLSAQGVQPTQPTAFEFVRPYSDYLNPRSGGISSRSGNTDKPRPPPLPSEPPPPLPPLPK
Sequence (P50750 whole entry): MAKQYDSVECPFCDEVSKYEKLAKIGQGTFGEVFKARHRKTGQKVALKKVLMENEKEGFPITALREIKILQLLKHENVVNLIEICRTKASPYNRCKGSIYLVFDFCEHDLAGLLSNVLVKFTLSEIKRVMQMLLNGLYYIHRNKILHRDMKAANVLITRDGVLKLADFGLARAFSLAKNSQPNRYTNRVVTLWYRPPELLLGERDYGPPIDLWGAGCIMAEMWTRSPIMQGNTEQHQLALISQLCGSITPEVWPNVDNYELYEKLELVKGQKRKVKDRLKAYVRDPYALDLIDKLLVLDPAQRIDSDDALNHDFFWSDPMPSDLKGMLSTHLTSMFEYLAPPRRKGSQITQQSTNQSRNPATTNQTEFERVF
Experiment: Inhibition of CDK9/cyclin T1 (unknown origin) preincubated for 10 mins followed by substrate/ATP measured after 60 mins by ADP-Glo assay
Type: protein-complex assay
pIC50 values by entry
The scale used: pIC50 is minus the common logarithm of the concentration in molar units.

- molecule: "O=C(NCCN1CCOCC1)c1ccc2cc1OCCCCCCOc1cncc(c1)-c1nc(ncc1F)N2"
  endpoint.value: 8.82
- molecule: "CC(=O)N1CCC(NC(=O)c2ccc3cc2OCCCCCCOc2cc(ccc2F)-c2nc(ncc2F)N3)CC1"
  endpoint.value: 8.92
- molecule: "O=C(NC1CCN(C2CC2)CC1)c1ccc2cc1OCCCCCCOc1cc(ccc1F)-c1nc(ncc1F)N2"
  endpoint.value: 8.47
- molecule: "O=C(NC1CCN(C2CCOC2)CC1)c1ccc2cc1OCCCCCCOc1cc(ccc1F)-c1nc(ncc1F)N2 (centres undefined)"
  endpoint.value: 9.00
- molecule: "O=C(NC1CCN(C2CCOC2)CC1)c1ccc2cc1OCCCCCCn1cc(cn1)-c1nc(ncc1F)N2 (centres undefined)"
  endpoint.value: 8.89

Measured pIC50 of O=C(NC1CCN(C2CC2)CC1)c1ccc2cc1OCCCCCCOc1cncc(c1)-c1nc(ncc1F)N2 : 8.85

Measured pIC50 of CC(=O)N1CCC(NC(=O)c2ccc3cc2OCCCCCCOc2cncc(c2)-c2nc(ncc2F)N3)CC1 : 9.00

Measured pIC50 of CC(C)N1CCC(NC(=O)c2ccc3cc2OCCCCCCOc2cc(ccc2F)-c2nc(ncc2F)N3)CC1 : 8.64

Measured pIC50 of O=C(CN1CCOCC1)NCc1ccc2cc1OCCCCCCOc1cc(ccc1F)-c1nc(ncc1F)N2 : 8.29
